species: Rattus norvegicus; experiment: Open TG-GATES - Regimen: Daily Repeat; assay type: toxicity, organism-based, Sprague-Dawley; parameters: regimen Daily Repeat, gender Male, age 6 weeks; settings: in vivo, po, 1000 mg/kg, […], tissue Blood, route gavage, dose level High, time 28 day
Overview of reported Ret across a group of compounds:

# Compound, Ret
data = [
    ("CCOc1ccc(NC(=O)CC(C)O)cc1 (stereo unspecified)", "8%"),
    ("COc1ccc2[nH]c([S+]([O-])Cc3ncc(C)c(OC)c3C)nc2c1 (stereo unspecified)", "4%"),
    ("NC(N)=Nc1nc(CSCCC(N)=NS(N)(=O)=O)cs1", "1.9%"),
    ("CCOC(=O)CCC(=O)O[C@H]1[C@H](O[C@@H]2[C@@H](C)[C@H](O[C@H]3C[C@@](C)(OC)[C@@H](O)[C@H](C)O3)[C@@H](C)C(=O)O[C@H](CC)[C@@](C)(O)[C@H](O)[C@@H](C)C(=O)[C@H](C)C[C@@]2(C)O)O[C@H](C)C[C@@H]1N(C)C [ERYTHROMYCIN ETHYLSUCCINATE]", "2.3%"),
    ("CC(C)OC(=O)C(C)(C)Oc1ccc(C(=O)c2ccc(Cl)cc2)cc1 [FENOFIBRATE]", "3.9%"),
    ("COC1=CC(=O)C[C@@H](C)[C@]12Oc1c(Cl)c(OC)cc(OC)c1C2=O", "3.3%"),
]

---

This listing pairs compounds with measured MCV.
organism: Rattus norvegicus; assay: Open TG-GATES - Regimen: Single; format: toxicity, organism-based, Sprague-Dawley; set-up: regimen Single, gender Male, age 6 weeks; conditions: in vivo, po, 0 mg/kg, 6 h, tissue Blood, route gavage, dose level Control
Reported Endpoint: MCV (fL)

# Compound, Assay Value
rows = [
    ("CN(C)CCCN1c2ccccc2CCc2ccccc21", 63.9),
    ("CCCNC(=O)NS(=O)(=O)c1ccc(Cl)cc1 [CHLORPROPAMIDE]", 64.3),
    ("CC/C(=C(\\c1ccccc1)c1ccc(OCCN(C)C)cc1)c1ccccc1", 65.3),
    ("CN(C)CCCN1c2ccccc2CCc2ccc(Cl)cc21", 65.1),
    ("CCOc1ccc(NC(=O)CC(C)O)cc1 (centres undefined)", 64.4),
    ("C[C@@H]1C[C@H]2[C@@H]3CCC4=CC(=O)C=C[C@]4(C)[C@@]3(F)[C@@H](O)C[C@]2(C)[C@@]1(O)C(=O)CO", 64.6),
    ("CC1=C(/C=C/C(C)=C/C=C/C(C)=C/CO)C(C)(C)CCC1", 61.8),
    ("COc1ccc2[nH]c([S+]([O-])Cc3ncc(C)c(OC)c3C)nc2c1 (centres undefined)", 62.7),
    ("NC(N)=Nc1nc(CSCCC(N)=NS(N)(=O)=O)cs1", 61.7),
]

---

organism: Rattus norvegicus; assay: Open TG-GATES - Regimen: Daily Repeat; type: toxicity, organism-based, Sprague-Dawley; design: regimen Daily Repeat, gender Male, age 6 weeks; conditions: in vivo, po, 0 mg/kg, 72 h, tissue Blood, route gavage, dose level Control, time 3 day
Reported Endpoint: Neu (%)

# Compound, Assay Value
measured = [
    ("COC1=CC(=O)C[C@@H](C)[C@]12Oc1c(Cl)c(OC)cc(OC)c1C2=O", 15),
    ("COc1ccc2[nH]c([S+]([O-])Cc3ncc(C)c(OC)c3C)nc2c1 (stereo not given)", 14.8),
    ("CN1C(=O)CN=C(c2ccccc2)c2cc(Cl)ccc21", 14.2),
    ("CN(C)CCN(Cc1cccs1)c1ccccn1", 16.4),
    ("CC1=C(/C=C/C(C)=C/C=C/C(C)=C/CO)C(C)(C)CCC1", 14),
]
